- test system: T1, recombinant human CFD, His-tagged (human, UniProt P00746 26-253)
- T1 construct: also called rhCFD-His
- T1 sequence (P00746 26-253 limits assumed): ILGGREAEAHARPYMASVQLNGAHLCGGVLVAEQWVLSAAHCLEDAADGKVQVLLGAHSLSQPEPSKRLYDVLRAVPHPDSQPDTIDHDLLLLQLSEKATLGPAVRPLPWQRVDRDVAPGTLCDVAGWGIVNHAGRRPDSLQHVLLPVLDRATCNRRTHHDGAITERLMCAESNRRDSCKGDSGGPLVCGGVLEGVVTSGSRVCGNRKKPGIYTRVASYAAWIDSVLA
- protocol text: SPR MX96
Measured pKd values are reported for all entries that follow.
// field semantics: pKd = negative decimal log of concentration (mol/L)

Recorded results for 2 binders are shown here.
{"binder": "KCD065 (antibody, V domains shown) VH: QVQLQQSGAELARPGASVKMSCKASGYTFTTYTIHWVKQRPGQGLEWIGYINPSSDFTNYNQNFADKATLTADRSSSTAYMQLSSLTSEESAVYYCAIRLGYDRQGWYFDVWGAGTTVTVSS VL: DIVMTQSHKFLSTSLGDRVSITCKASQDVGSAVAWYQQKPGQSPDLLIYWTFTRHTGVPDRFTGSRSGTDFTLTISNVQSGDLADYFCQQYSNYPLTFGGGTKLEIK", "pKd": 7.77}
{"binder": "KCD058 (antibody, V domains shown) VH: EVKLVESGGDLVQPGGSLKLSCAASGFTFSRYIMSWVRLTPEKRLEWVAFITNGGGNTYHPDTVKGRFTISRDNANNTLYLQMSSLKSEDTAIYYCARHDYYALDYWGQGTSVTVSS VL: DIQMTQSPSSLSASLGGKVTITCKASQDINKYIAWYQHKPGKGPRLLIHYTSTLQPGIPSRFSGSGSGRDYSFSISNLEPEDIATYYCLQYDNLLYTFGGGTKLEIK", "pKd": 8.03}

Reported pKd ( KCD135 (antibody, V domains shown) VH: EVQLQQSGPELVKPGASVRMSCKASGYIFTDYSIHWVKQSHGKSLEWIGYINPNNGGTSYNQKFKGKATLTVNKSSTTAYMELRSLTSEDSAVYFCARDTTIVGDYWGQGTTLTVSS VL: DIVMTQSQKFMSTSVGDRVSVTCKASQHVGTNVVWYQQKPGQSPKALIYSASYRYSGVPDRFSGSGSGTDFTLTISNVQSEDLAEYFCQQFNSYPLTFGGGTKLEIK ) = 7.89

Attribution: patent US20180334496A1
